test system: 885724-159-R-J1-PDC complex spheroid viability; assay: Anticancer human tumor 885724-159-R-J1-PDC patient-derived pancreatic adenocarcinoma cell line growth inhibition [GQUAD]; details: second compound 3.16 µM; first compound 0.316 µM; stronger effect = lower value
Quantity Measured: viability, T/C (%)
Form entry: value (%) — number only.

# viability, T/C of O=C(c1cc(Cc2n[nH]c(=O)c3ccccc23)ccc1F)N1CCN(C(=O)C2CC2)CC1 + CN(C)c1ccc(Nc2c3ccc(NC(=O)CCN4CCCC4)cc3nc3cc(NC(=O)CCN4CCCC4)ccc23)cc1 = 84.4

Noted for C#Cc1c(F)ccc2cc(O)cc(-c3ncc4c(N5CC6CCC(C5)N6)nc(OCC56CCCN5CC(F)C6)nc4c3F)c12 (stereo not given) + Cc1[nH]c2ccc(F)cc2c1-c1nc2c3cccnc3c3ncccc3c2[nH]1 : its viability, T/C reads 12.7

// COc1ccc([C@@H](O)c2cc(-c3ncnc4cc(N5CCOCC5)ccc34)c(F)cc2Cl)nn1 + Cc1[nH]c2ccc(F)cc2c1-c1nc2c3cccnc3c3ncccc3c2[nH]1 : viability, T/C value = 51.2

viability, T/C recorded for this compound, Cc1cccc(N(C)C(=O)C2C(O)CCN2c2nc(C)cc(C(F)(F)F)c2C#N)c1 (stereo not given) + Cc1[nH]c2ccc(F)cc2c1-c1nc2c3cccnc3c3ncccc3c2[nH]1 , is 50.8

// viability, T/C lookup, compound = CC1COCCN1c1cc(-c2ccnn2C)c2ccnc(-c3ccn[nH]3)c2n1 (stereo not given) + Cc1[nH]c2ccc(F)cc2c1-c1nc2c3cccnc3c3ncccc3c2[nH]1 , result: 47.9

----------
tested on: 885724-159-R-J1-PDC complex spheroid viability; assay: Anticancer human tumor 885724-159-R-J1-PDC cell line growth inhibition [GQUAD]; details: second compound 0.316 µM; first compound 10 µM; stronger effect = lower value;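 further: spheroids exposed to agents for seven days before readout; percent of vehicle control viability where 100% = DMSO wells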
Quantity Measured: viability, T/C (%)
The figure you give is taken to be in %; do not add the unit.

Observe how each entry below is paired with its result.
For reference, reported viability, T/C for C#Cc1c(F)ccc2cc(O)cc(-c3ncc4c(N5CC6CCC(C5)N6)nc(OCC56CCCN5CC(F)C6)nc4c3F)c12 (stereo not given) + CN(C)c1ccc(Nc2c3ccc(NC(=O)CCN4CCCC4)cc3nc3cc(NC(=O)CCN4CCCC4)ccc23)cc1 stands at 28.7

Measured viability, T/C, CCCS(=O)(=O)Nc1ccc(F)c(C(=O)c2c[nH]c3ncc(-c4ccc(Cl)cc4)cc23)c1F + Cc1cnc(CNC(=O)c2c(=O)c3ccc(N4CCCN(C)CC4)nc3n3c2sc2ccccc23)cn1 : 72.2

Short answer for O=C(NO)c1cnc(N2CCN(S(=O)(=O)c3ccc4ccccc4c3)CC2)nc1 + Cc1[nH]c2ccc(F)cc2c1-c1nc2c3cccnc3c3ncccc3c2[nH]1 : viability, T/C was 0.18

More entries:
# compound CC1COCCN1c1cc(C2(O)CC3CCC(C2)O3)c2cnn(-c3ccn[nH]3)c2n1 (stereo not given) + CN(C)c1ccc(Nc2c3ccc(NC(=O)CCN4CCCC4)cc3nc3cc(NC(=O)CCN4CCCC4)ccc23)cc1 ; its viability, T/C = 33

Lab book: viability, T/C of Nc1ccn(C2OC(CO)C(O)C2(F)F)c(=O)n1 (stereo not given) + Cc1[nH]c2ccc(F)cc2c1-c1nc2c3cccnc3c3ncccc3c2[nH]1 noted as 69.3

// data source = PubChem BioAssay AID2060502
